Kindly supply the reported inhibition at 10 µM values for the records listed here.
- tgt: BTK (Homo sapiens)
- Sequence (Q06187 402-655 limits assumed): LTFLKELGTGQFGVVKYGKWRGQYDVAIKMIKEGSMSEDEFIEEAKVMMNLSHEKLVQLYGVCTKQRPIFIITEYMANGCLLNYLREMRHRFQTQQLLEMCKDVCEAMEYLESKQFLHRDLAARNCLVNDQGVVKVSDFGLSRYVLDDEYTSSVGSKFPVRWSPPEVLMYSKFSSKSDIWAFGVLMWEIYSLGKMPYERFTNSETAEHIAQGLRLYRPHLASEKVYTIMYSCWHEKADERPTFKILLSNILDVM
- experiment: biochemical
- test-context: read-out: BTK inhibition (%), 0.75 uM BTK, […] probe 3l, 15 min preincubation
Numbers only, in %.

CC(=O)OC/C=C(/C)CCC=C(C)C : 1.5

Report inhibition at 10 µM for each item below.
1. O=C(Nc1cccc(Nc2ncc(Br)c(NCCc3cnc[nH]3)n2)c1)N1CCCC1
2. NCCC(O)(P(=O)(O)O)P(=O)(O)O
3. O=c1cc(N2CCOCC2)oc2c(-c3ccc4c(c3)OCCO4)csc12
4. O=[N+]([O-])c1ccc(Nc2nc(N3CCOCC3)nc(N3CCOCC3)n2)cc1
5. Nc1nc(=S)c2[nH]cnc2[nH]1
6. Clc1ccc(CCC(Cn2ccnc2)Sc2c(Cl)cccc2Cl)cc1 (stereo not shown)

85.5
-6.8
23.4
0
-1.6
37.4
